These measurements were taken from patent US9550811B2.

Tested on: human PBMCs
Assay type: cell-based
Settings: With Cytofix/Cytoperm and trypsination; BC20; concentration 208 μM
Each record is given MET if its reported Geomean value (peptide-fluorescence) is strictly below 7000. Records at or above 7000 are given NOT MET.

Bench note: check whether RRGYIPLVGAPLGRRRVARALAHGVRV [SP6] shows Geomean value (peptide-fluorescence) below 7000
MET

---

System: HLA-B8
Experiment: REVEAL binding assay
Details: score as percentage of the signal generated by the positive control peptide
Where no end group is shown, it is not given here. [ ]: non-standard residue; d: D form. Cit = NC(=O)NCCC[C@H](N)C(=O)O
Binary call on REVEAL binding score, HLA-type B8: Condition met from 10% upward, Condition not met beneath that.

NLGRVIETL : Condition met
P[Cit]IGVRAT[Cit] : Condition not met
GKVIDTLTC : Condition met
GGQIIGGNY : Condition met
VIETLTSGF : Condition met

Is REVEAL binding score, HLA-type B8 for "RVIETLTSG" at or above 10%?
Condition met

Is REVEAL binding score, HLA-type B8 for "ATGNLPGCS" at or above 10%?
Condition met

---

Recorded measurements of REVEAL binding score, HLA-type B15, one per entry
System: HLA-B15
Test: REVEAL binding assay
Conditions: score as percentage of the signal generated by the positive control peptide
Where no end group is shown, it is not given here. [ ]: non-standard residue; d: D form. Cit = NC(=O)NCCC[C@H](N)C(=O)O; Nle = CCCC[C@H](N)C(=O)O
API: value field is a number in %; no unit string.

Worked cases, answers included:
IRVIAHGLR : 8.99
TGNIPGSTY : 52.30
NLGRVIETL : 16.29
GYIPLVGAP : 11.02
QIVGGVYLL : 15.07
[Nle]GYIPLIGA : 11.07
ATGNLPGCS : 3.81
GRVIETLTS : 8.31

Look at this substance and give its reported REVEAL binding score, HLA-type B15. "LPAVGAPIG"
10.10

Look at this substance and give its reported REVEAL binding score, HLA-type B15. "[Cit]IGVRAT[Cit]R"
14.45

---

System: HLA-B8
Assay: REVEAL binding assay
Settings: score as percentage of the signal generated by the positive control peptide
parameter.measured: REVEAL binding score, HLA-type B8 (%)
API: value field is a number in %; no unit string.

Look at this substance and give its reported REVEAL binding score, HLA-type B8. "KVIDTLTCG"
13.17

Look at this substance and give its reported REVEAL binding score, HLA-type B8. "ADLMGYIPL"
11.40

Look at this substance and give its reported REVEAL binding score, HLA-type B8. "GITFSIYLI"
8.94

Look at this substance and give its reported REVEAL binding score, HLA-type B8. "IIGGNYLIP"
12.18

Look at this substance and give its reported REVEAL binding score, HLA-type B8. "MGYIPLVGA"
14.88

---

System: HLA-A29
Experiment: REVEAL binding assay
Settings: score as percentage of the signal generated by the positive control peptide
Each record is given rule met if its reported REVEAL binding score, HLA-type A29 is strictly below 20%. Records at or above 20% are given rule not met.

LPAVGAPIG : rule not met

Bench note: check whether "RVIAHGLRL" shows REVEAL binding score, HLA-type A29 below 20%
rule not met

Bench note: check whether "RNLGRVIET" shows REVEAL binding score, HLA-type A29 below 20%
rule met

Bench note: check whether "IPLVGAPLG" shows REVEAL binding score, HLA-type A29 below 20%
rule not met

Bench note: check whether "GYLPAVGAP" shows REVEAL binding score, HLA-type A29 below 20%
rule not met

Bench note: check whether "GKVIDTLTC" shows REVEAL binding score, HLA-type A29 below 20%
rule met

Bench note: check whether "YLPAVGAPI" shows REVEAL binding score, HLA-type A29 below 20%
rule not met

Bench note: check whether "PRLGVRATR" shows REVEAL binding score, HLA-type A29 below 20%
rule met

Bench note: check whether "ATGNLPGCS" shows REVEAL binding score, HLA-type A29 below 20%
rule not met
